Assay system: Fatty Acid Synthase Keto-reductase Domain (FASN KR) (Homo sapiens)
Sequence (P49327 whole entry, the tested form may be a part): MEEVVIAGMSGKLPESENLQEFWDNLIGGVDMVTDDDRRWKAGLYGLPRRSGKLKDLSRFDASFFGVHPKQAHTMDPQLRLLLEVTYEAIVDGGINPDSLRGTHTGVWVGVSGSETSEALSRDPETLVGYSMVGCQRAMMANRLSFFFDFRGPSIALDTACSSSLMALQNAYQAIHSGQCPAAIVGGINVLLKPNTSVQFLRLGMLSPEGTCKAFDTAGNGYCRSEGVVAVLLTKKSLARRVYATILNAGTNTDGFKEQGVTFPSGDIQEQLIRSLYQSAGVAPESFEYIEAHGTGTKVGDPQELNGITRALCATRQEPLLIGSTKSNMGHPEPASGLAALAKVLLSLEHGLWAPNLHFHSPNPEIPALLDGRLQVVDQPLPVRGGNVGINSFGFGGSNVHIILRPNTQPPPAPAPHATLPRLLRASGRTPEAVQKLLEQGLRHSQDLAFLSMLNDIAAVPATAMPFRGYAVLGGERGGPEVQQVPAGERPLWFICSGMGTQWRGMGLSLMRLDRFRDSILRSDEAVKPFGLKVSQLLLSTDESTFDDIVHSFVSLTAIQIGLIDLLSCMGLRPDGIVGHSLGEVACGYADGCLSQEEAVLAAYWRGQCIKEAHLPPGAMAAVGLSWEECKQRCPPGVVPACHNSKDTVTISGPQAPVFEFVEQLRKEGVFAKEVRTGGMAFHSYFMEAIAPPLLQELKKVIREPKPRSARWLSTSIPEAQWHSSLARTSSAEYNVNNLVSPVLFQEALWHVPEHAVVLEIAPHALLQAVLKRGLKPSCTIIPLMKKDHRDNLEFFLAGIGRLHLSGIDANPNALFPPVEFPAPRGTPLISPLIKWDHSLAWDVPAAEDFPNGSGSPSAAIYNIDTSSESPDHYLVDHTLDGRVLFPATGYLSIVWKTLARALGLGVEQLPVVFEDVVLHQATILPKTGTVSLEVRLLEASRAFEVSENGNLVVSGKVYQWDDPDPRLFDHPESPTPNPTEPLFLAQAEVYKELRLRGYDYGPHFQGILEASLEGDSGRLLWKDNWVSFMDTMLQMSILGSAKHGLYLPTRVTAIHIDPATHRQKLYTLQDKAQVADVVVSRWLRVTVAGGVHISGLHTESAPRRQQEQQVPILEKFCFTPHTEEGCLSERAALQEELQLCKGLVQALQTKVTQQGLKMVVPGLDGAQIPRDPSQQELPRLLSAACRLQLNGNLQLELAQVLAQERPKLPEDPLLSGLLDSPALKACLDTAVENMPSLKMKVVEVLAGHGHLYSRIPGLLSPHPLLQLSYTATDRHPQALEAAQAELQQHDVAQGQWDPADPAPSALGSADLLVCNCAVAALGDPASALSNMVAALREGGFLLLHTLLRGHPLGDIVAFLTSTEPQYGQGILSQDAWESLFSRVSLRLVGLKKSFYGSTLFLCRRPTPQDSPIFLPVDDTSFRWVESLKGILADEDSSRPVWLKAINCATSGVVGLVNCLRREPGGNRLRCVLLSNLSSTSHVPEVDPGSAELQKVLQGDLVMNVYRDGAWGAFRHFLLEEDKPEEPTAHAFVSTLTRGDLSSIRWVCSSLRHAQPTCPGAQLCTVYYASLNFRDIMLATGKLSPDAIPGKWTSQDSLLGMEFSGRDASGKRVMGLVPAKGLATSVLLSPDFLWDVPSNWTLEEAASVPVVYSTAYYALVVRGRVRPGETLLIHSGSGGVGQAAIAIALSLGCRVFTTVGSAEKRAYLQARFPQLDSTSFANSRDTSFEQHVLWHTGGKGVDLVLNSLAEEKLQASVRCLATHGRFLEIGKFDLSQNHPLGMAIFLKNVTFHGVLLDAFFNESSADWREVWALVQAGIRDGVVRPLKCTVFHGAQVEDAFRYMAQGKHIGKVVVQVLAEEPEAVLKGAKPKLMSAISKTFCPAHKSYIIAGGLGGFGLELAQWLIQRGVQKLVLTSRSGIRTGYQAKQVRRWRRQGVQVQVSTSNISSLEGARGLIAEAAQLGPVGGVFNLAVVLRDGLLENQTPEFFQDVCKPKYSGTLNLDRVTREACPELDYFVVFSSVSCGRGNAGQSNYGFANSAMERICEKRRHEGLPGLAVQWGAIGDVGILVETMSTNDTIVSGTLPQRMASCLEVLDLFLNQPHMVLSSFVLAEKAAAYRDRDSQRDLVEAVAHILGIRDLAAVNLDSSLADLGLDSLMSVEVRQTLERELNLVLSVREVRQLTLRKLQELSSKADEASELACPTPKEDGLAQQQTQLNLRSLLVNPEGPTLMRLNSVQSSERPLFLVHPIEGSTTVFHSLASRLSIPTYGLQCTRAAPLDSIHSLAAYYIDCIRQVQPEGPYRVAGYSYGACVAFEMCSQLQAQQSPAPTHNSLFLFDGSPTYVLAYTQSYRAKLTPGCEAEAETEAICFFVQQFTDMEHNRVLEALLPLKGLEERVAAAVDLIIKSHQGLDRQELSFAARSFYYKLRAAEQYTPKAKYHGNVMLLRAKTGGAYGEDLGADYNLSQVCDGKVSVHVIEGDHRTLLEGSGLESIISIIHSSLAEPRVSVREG
Endpoint label: IC50 (nM)

Previously resolved entries follow.
# Compound, Endpoint label, Units of measure, Measured
measured = [
    ("O=C(C1CC1)N1CC[C@@H](CN2C(=O)C3(CCCC3)N=C2c2ccc(-c3ccc4ccncc4c3)cc2)C1", "IC50", "nM", 851),
    ("O=C(C1CC1)N1CC[C@@H](CN2C(=O)C3(CC3)N=C2c2ccc(-c3ccc4sccc4c3)cc2F)C1", "IC50", "nM", 28.8),
]

(P) Cc1cc2cc(-c3ccc(C4=NC5(CC5)C(=O)N4CC4CN(C(=O)C5CC5)C4)c(F)c3)ccc2s1
(Q) Cc1nnc(-c2ccc(-c3ccc(C4=NC5(CCCC5)C(=O)N4C[C@@H]4CCN(C(=O)C5CC5)C4)c(C)c3)cc2)o1
(R) Cn1nc(C#N)c2ccc(-c3ccc(C4=NC5(CC5)C(=O)N4C[C@@H]4CCN(C(=O)C5CC5)C4)cc3)cc21
(S) O=C([C@H]1CCCO1)N1CC(CN2C(=O)C3(CCOC3)N=C2c2ccc(-c3ccc4cccnc4c3)cc2)C1 (some centres unmarked)
(T) Cc1cc2cc(-c3ccc(C4=NC5(CC5)C(=O)N4CC4CN(C(=O)C5(C)CC5)C4)c(F)c3)ccc2s1
Req: Parameters: sort_field (IC50), sort_dir (desc). In your reply, arrange the labels in the requested order.
Resp: S, R, Q, P, T

(I) Cc1oc2ccc(-c3ccc(C4=NC5(CC5)C(=O)N4C[C@@H]4CCN(C(=O)C5CC5)C4)c(F)c3)cc2c1C
(II) O=C([C@H]1CCCO1)N1CC[C@@H](CN2C(=O)C3(CCOCC3)N=C2c2ccc(-c3ccc4cccnc4c3)cc2)C1
(III) O=C(C1CC1)N1CC[C@@H](CN2C(=O)C3(CC3)N=C2c2ccc(-c3ccc4[nH]ccc4c3)cc2)C1
(IV) COC(=O)N1CC2(C1)N=C(c1ccc(-c3ccc4cccnc4c3)cc1)N(C[C@@H]1CCN(C(=O)C(C)O)C1)C2=O (some centres unmarked)
Req: Hello, I need these entries ordered by IC50, highest reading first. Thanks! Note for the reader: the ranking is given by listing the labels in the order requested.
Resp: IV, II, I, III
(IV: 813 nM, II: 275 nM, I: 56.2 nM, III: 35.5 nM)

(1) O=C(C1CC1)N1CC(CN2C(=O)C3(CC3)N=C2c2ccc(-c3ccc4ocnc4c3)cc2)C1
(2) O=C(C1CC1)N1CC[C@@H](CN2C(=O)C3(CC3)N=C2c2ccc(-c3ccc4cc[nH]c4c3)cc2F)C1
Req: Could you check which of 1 and 2 has a smaller value for IC50? When you have decided, please share the label of that item.
Resp: 2
(2: 17.8 nM, 1: 1780 nM)
